# Tested on: MOLT-4 leukemia
# ASSAY INFO: NCI-60 one-dose screen, 48 h (100 = growth as untreated, 0 = no growth, -100 = all killed)
# ASSAY CONTEXT: 10 µM unless noted
This is part of a sample that, as a whole, favours compounds with a hit. Of some 83,000 tested, about 20% had one in any assay.
Threshold-based label: growth under 50% gives TRUE, growth not under 50% gives FALSE.

Cc1ccc2sc3c(NCCCNCCO)nc4ccccc4c3c(=O)c2c1 = TRUE
COC(=O)/C(CCC=C(C)C)=C1\[C@@H](OC(C)=O)C[C@@]2(C)[C@H]1C[C@@H](O)[C@H]1[C@@]3(C)CC[C@H](NCCCNCCCCNCCCN)[C@@H](C)[C@@H]3CC[C@@]12C = FALSE
COc1ccc(C2=C(c3cccc(OC)c3)C(=O)c3ccc(C)nc3C2=O)cc1 = TRUE
CN(C)/C=C1\SC(=Nc2ccc(Cl)cc2)NC1=O = FALSE
CCCCC(O)(c1ccc(Cl)cc1)C(CN1CCOCC1)c1ccc(Cl)cc1 (centres undefined) = TRUE

Prompt: Lab log: compare recorded growth with 50%; is it strictly lower for "O=C(Nc1ccc(Br)cc1F)c1cc(I)ccc1O" ?
Completion: TRUE

Prompt: Lab log: compare recorded growth with 50%; is it strictly lower for "COc1cc(OC)cc(N2C(=O)N(Cc3ccc(C(C)(C)C)cc3)c3ccccc3S2(=O)=O)c1" ?
Completion: FALSE

Prompt: Lab log: compare recorded growth with 50%; is it strictly lower for "CCOC(=O)C(CC(=O)O)=C(C(=O)OCC)C(=O)OCC" ?
Completion: FALSE

Prompt: Lab log: compare recorded growth with 50%; is it strictly lower for "COC(=O)c1c2c(c(C)[n+]([O-])c1C)C(=O)C=C(NCc1ccccc1)C2=O" ?
Completion: TRUE

Prompt: Lab log: compare recorded growth with 50%; is it strictly lower for "O=C(Nc1ccc(N2CCNCC2)cc1)c1[nH]ncc1Nc1cc(C2CC2)ncn1" ?
Completion: TRUE

Prompt: Lab log: compare recorded growth with 50%; is it strictly lower for "COc1ccc(/C(C#N)=C/c2nc3c(N4CCOCC4)nc(Cl)nc3n2C)cc1OC" ?
Completion: TRUE

Prompt: Lab log: compare recorded growth with 50%; is it strictly lower for "COc1cc(/C=C2\CN(C)C/C(=C\c3cc(CN4CCCC4)c(O)c(OC)c3)C2=O)cc(CN2CCCC2)c1O" ?
Completion: FALSE

Prompt: Lab log: compare recorded growth with 50%; is it strictly lower for "COC(=O)c1c2c(c(C)[n+]([O-])c1C)C(=O)C=C(NCc1ccc(F)c(F)c1)C2=O" ?
Completion: TRUE

Prompt: Lab log: compare recorded growth with 50%; is it strictly lower for "O=c1oc2ccc(Br)cc2c(=O)n1-c1ccc(Cl)cc1F" ?
Completion: TRUE

Prompt: Lab log: compare recorded growth with 50%; is it strictly lower for "O=Cc1c(OCc2cnnn2CC(=O)Nc2ccc(Cl)cc2)ccc2ccccc12" ?
Completion: FALSE

Prompt: Lab log: compare recorded growth with 50%; is it strictly lower for CN1C(=O)N(C)C2Nn3c(s/c(=C4\C(=O)N(CCc5ccccc5)c5ccccc54)c3=O)=NC21 (centres undefined) ?
Completion: FALSE

Prompt: Lab log: compare recorded growth with 50%; is it strictly lower for "CC[C@]1(O)C[C@@H]2CN(CCc3c([nH]c4ccccc34)[C@@](C(=O)OC)(c3cc4c(cc3OC)N(C)[C@H]3[C@@](O)(C(=O)OC)[C@H](OC(=O)CCCBr)[C@]5(CC)C=CCN6CC[C@]43[C@@H]65)C2)C1" ?
Completion: TRUE

Prompt: Lab log: compare recorded growth with 50%; is it strictly lower for Cc1ccccc1CNC(=O)C1CN(c2ccc(Cl)cc2)N(c2ccc(Cl)cc2)C1=O (centres undefined) ?
Completion: FALSE
